# Lookup of reported log10 MIC keyed by entry
Test system: E.coli DC2
Hi team, quick reminder: these entries are log10 of MIC (µg/mL).

QUERY: Specify log10 MIC for "C[C@@H](O)[C@H]1C(=O)N2C(C(=O)O)=C(c3ccc(NC=O)cc3)S[C@H]12" and stop.
RESULT: -0.72

***
QUERY: Specify log10 MIC for "C[C@@H](O)[C@H]1C(=O)N2C(C(=O)O)=C(c3cccc(NC=O)c3)S[C@H]12" and stop.
RESULT: -0.41

QUERY: Specify log10 MIC for "C[C@@H](O)[C@H]1C(=O)N2C(C(=O)O)=C(c3ccc(F)cc3)S[C@H]12" and stop.
RESULT: 0.19

QUERY: Specify log10 MIC for "C[C@@H](O)[C@H]1C(=O)N2C(C(=O)O)=C(c3cccc(C(N)=O)c3)S[C@H]12" and stop.
RESULT: -1.00

QUERY: Specify log10 MIC for "C[C@@H](O)[C@H]1C(=O)N2C(C(=O)O)=C(c3ccccc3)S[C@H]12" and stop.
RESULT: -0.41

QUERY: Specify log10 MIC for "COc1ccc(C2=C(C(=O)O)N3C(=O)[C@H]([C@@H](C)O)[C@H]3S2)cc1" and stop.
RESULT: -0.11

QUERY: Specify log10 MIC for "CSc1cccc(C2=C(C(=O)O)N3C(=O)[C@H]([C@@H](C)O)[C@H]3S2)c1" and stop.
RESULT: -0.41

QUERY: Specify log10 MIC for "C[C@@H](O)[C@H]1C(=O)N2C(C(=O)O)=C(c3ccc(Cl)cc3)S[C@H]12" and stop.
RESULT: -0.41

QUERY: Specify log10 MIC for CC(O)C1C(=O)N2C(C(=O)O)=C(c3ccc(C(N)=O)cc3)SC12 (stereo not shown) and stop.
RESULT: -0.41

QUERY: Specify log10 MIC for "CSc1ccc(C2=C(C(=O)O)N3C(=O)[C@H]([C@@H](C)O)[C@H]3S2)cc1" and stop.
RESULT: -0.11

* * *

Tested on: Str.faecium D
EXPERIMENTAL DETAILS: agar dilution test (MIC)
Format: cell-based
CONDITION DETAILS: Enterococcus faecium; Str.faecium D; Mueller Hinton agar, 16 to 18 hours at 37°C; read-out: Minimum Inhibitory Concentration (MIC)
# Lookup of reported MIC keyed by entry
Kindly format the answer as number then unit.

QUERY: Specify MIC for "C[C@@H](O)[C@H]1C(=O)N2C(C(=O)O)=C(c3ccc(NC=O)cc3)S[C@H]12" and stop.
RESULT: 0.78 µg/mL

QUERY: Specify MIC for "COc1ccc(C2=C(C(=O)O)N3C(=O)[C@H]([C@@H](C)O)[C@H]3S2)cc1" and stop.
RESULT: 3.13 µg/mL

QUERY: Specify MIC for "CSc1cccc(C2=C(C(=O)O)N3C(=O)[C@H]([C@@H](C)O)[C@H]3S2)c1" and stop.
RESULT: 1.56 µg/mL

***
QUERY: Specify MIC for "CSc1ccc(C2=C(C(=O)O)N3C(=O)[C@H]([C@@H](C)O)[C@H]3S2)cc1" and stop.
RESULT: 3.13 µg/mL

* * *

System: Kl.aerog. 1522E
EXPERIMENTAL DETAILS: agar dilution test (MIC)
Assay type: cell-based
CONDITION DETAILS: Kl.aerog. 1522E; Mueller Hinton agar, 16 to 18 hours at 37°C; read-out: Minimum Inhibitory Concentration (MIC)
MEASURE NAME: MIC (µg/mL)
// units = µg/mL; emit number, no label

QUERY: State MIC on Kl.aerog. 1522E. Entry: CC(O)C1C(=O)N2C(C(=O)O)=C(c3ccc(C(N)=O)cc3)SC12 (stereo not drawn)
RESULT: 0.39

***
QUERY: State MIC on Kl.aerog. 1522E. Entry: "C[C@@H](O)[C@H]1C(=O)N2C(C(=O)O)=C(c3cccc(C(N)=O)c3)S[C@H]12"
RESULT: 0.19

QUERY: State MIC on Kl.aerog. 1522E. Entry: "CSc1ccc(C2=C(C(=O)O)N3C(=O)[C@H]([C@@H](C)O)[C@H]3S2)cc1"
RESULT: 25

QUERY: State MIC on Kl.aerog. 1522E. Entry: "C[C@@H](O)[C@H]1C(=O)N2C(C(=O)O)=C(c3ccc(F)cc3)S[C@H]12"
RESULT: 12.5

QUERY: State MIC on Kl.aerog. 1522E. Entry: "C[C@@H](O)[C@H]1C(=O)N2C(C(=O)O)=C(c3ccc(NC=O)cc3)S[C@H]12"
RESULT: 0.39

QUERY: State MIC on Kl.aerog. 1522E. Entry: "C[C@@H](O)[C@H]1C(=O)N2C(C(=O)O)=C(c3cccc(NC=O)c3)S[C@H]12"
RESULT: 0.39
